target: TAS2R1 (Homo sapiens); construct: first 45 amino acids of rat somatostatin type 3 receptor (SSTR3) export tag (N); test: Calcium mobilization functional assay, TAS2R1 co-expressed with Gα16-gust44 and GCaMP in HEK293E cells; conditions: dose-response, N = 3, HEK293E
Sequence (Q9NYW7 whole entry): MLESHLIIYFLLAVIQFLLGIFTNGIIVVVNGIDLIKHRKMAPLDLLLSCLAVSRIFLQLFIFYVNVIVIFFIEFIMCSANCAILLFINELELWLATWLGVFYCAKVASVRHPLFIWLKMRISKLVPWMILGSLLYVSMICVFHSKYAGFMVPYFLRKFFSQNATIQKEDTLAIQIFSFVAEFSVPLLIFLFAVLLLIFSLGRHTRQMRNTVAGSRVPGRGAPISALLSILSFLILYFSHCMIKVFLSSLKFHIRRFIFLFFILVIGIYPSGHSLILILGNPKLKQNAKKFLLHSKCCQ
measurementKind: pEC50
Note: pEC50 values are expressed as the negative base-10 logarithm of concentration in M.

Query: Query (compound): COC(=O)C1=COC(C)C(C=O)C1CC(=O)OCCc1ccc(O)c(O)c1 (single isomer, unassigned; isomer b) ; field requested: pEC50
Reply: 3.85
